target: Chromobox protein homolog 7 (Homo sapiens); test: Antagonist activity at Flag-tagged CBX7 (unknown origin) assessed as inhibition of CBX7/biotinylated H3K9Me3 peptide interaction at 30 uM after 30 mins by AlphaScreen assay
Calls of active or inactive are those of the source. The calls are words filed in the database; no cut-off is given here.
quantityName: inhibition

# count of solved cases: 5
c1ccc(C(c2ccccc2)N2CCC(N3CCCC3)CC2)cc1: inactive
O=C(c1cncc(Br)c1)N1CCC(N2CCCC2)CC1: 9%
CC(c1cccc(Br)c1)N1CCC(N2CCCC2)CC1 (racemic): inactive
O=C(c1cccc(Br)c1)N1CCC(C2CCCN2)CC1 (centres undefined): inactive
Brc1cccc(CN2CCC(N3CCCC3)CC2)c1: inactive

Given item O=C(c1cccc(Br)c1)N1CC2CCC(C1)C2N1CCCC1 (centres undefined) , the value recorded as its inhibition is inactive

inhibition measured on O=C(c1ccc(Br)cc1)N1CCC(N2CCCC2)CC1 = inactive

molecule CC1CCCN1C1CCN(C(=O)c2cccc(Br)c2)CC1 (centres undefined) , inhibition observed: inactive

src = ChEMBL document CHEMBL3217594
